methodDescription: CCTE_Shafer_MEA_acute_per_burst_spike_number_mean: CCTE's Neural Acute Assay for Average Number of Spikes Per Burst, Shafer Lab (AID 2284015);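 note: hits are decreases in mean spikes per burst versus baseline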
Method: CCTE_Shafer_MEA_acute assay is conducted using Axion Biosystems 48 well microelectrode array (MEA) plates and Maestro recording system. Each well of the MEA plate contains a grid of 16 microelectrodes embedded in the culture surface. Electrically active cells, such as neurons, can be cultured over the electrodes, and electrical activity in these cells can be recorded extracellularly. […]
Active and inactive are the calls of the source. Rule for the calls: active = hit-call score of the fitted dose curve at least 0.9, where 1 is the maximum; inactive = score below 0.9.
Would you mind answering with one of these outcomes? active, inactive

Q) Which result was noted for this compound in the test: `O=C1NS(=O)(=O)c2ccccc21`
A) inactive

Q) Field: outcome | Entry: `O=C(CCCN1CCC(O)(c2ccc(Cl)cc2)CC1)c1ccc(F)cc1`
A) inactive

Q) Tell me the recorded outcome of this test for `Oc1ccc(Cc2ccccc2O)cc1` .
A) inactive

Q) What did the test return for `CN(C)CCOC(c1ccccc1)c1ccccc1` ?
A) inactive

Q) Hello, I am checking results. What call was entered for `Oc1c(Cl)cc(Cl)cc1Sc1cc(Cl)cc(Cl)c1O` ?
A) active

Q) Per the assay record, what outcome was assigned to `CC(=O)Nc1ccc(O)cc1` ?
A) inactive

Q) // return assay outcome for `CCCCCCCCCCCC`
A) inactive

Q) Tell me the recorded outcome of this test for `CCCCC=O` .
A) inactive

---

System: SRY-box transcription factor 17 (SOX17) Protein Expression, Deisenroth Lab, SOX17 (gene 64321)
methodDescription: CCTE_Deisenroth_DEVTOX-GLR_Pluri_SOX17: CCTE's DevTox GLR-Pluri Assay Evaluation of SRY-box transcription factor 17 (SOX17) Protein Expression, Deisenroth Lab (AID 2284427)
Records with an inconclusive call do not appear. Activity calls are given as the source filed them. The calls were made as follows: active = hit-call score of the fitted dose curve at least 0.9, where 1 is the maximum; inconclusive = response in the unintended direction; inactive = score below 0.9.
Your response should consist of one outcome taken from T = active, F = inactive

Q) Per the assay record, what outcome was assigned to `CCCCc1oc2ccccc2c1C(=O)c1cc(I)c(OCCN(CC)CC)c(I)c1` ?
A) T

Q) Lab log entry: `O=C1NS(=O)(=O)c2ccccc21` — outcome as called in the assay?
A) F

Q) Just curious, what result did `CC(=O)Nc1ccc(O)cc1` get here?
A) F

Q) What classification did `CN(Cc1cnc2nc(N)nc(N)c2n1)c1ccc(C(=O)N[C@@H](CCC(=O)O)C(=O)O)cc1` end up with in this test?
A) F

Q) Check the results log: what was the call for `CN(C)CCOC(c1ccccc1)c1ccccc1` ?
A) T

---

methodDescription: BSK_SAg_PBMCCytotoxicity: PBMC Cytotoxicity Assessment in the BioMAP Diversity Plus: SAg Assay (AID 2283093);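 note: PBMC viability measured as Alamar Blue reduction fluorescence at 546/580 nm; fitted both ways against DMSO so a hit may be loss or gain of signal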
runParameters: primary human HUVEC with PBMC
Activity calls are given as the source filed them. How the source made its calls: active means hit-call score of the fitted dose curve at least 0.9, where 1 is the maximum; inactive means score below 0.9.
Respond with a class label; see TRUE for active, FALSE for inactive

Q) So what was the verdict on `Oc1ccc(Cc2ccccc2O)cc1` in this test?
A) FALSE

Q) Record request — test call for `Cc1[nH]nc2c1N=C(c1ccccc1Cl)c1cc([N+](=O)[O-])ccc1N2`
A) FALSE

Q) What was the test verdict on `COC1=CC(=O)C[C@@H](C)[C@]12Oc1c(Cl)c(OC)cc(OC)c1C2=O` ?
A) FALSE

Q) Could you kindly confirm the outcome this assay logged for `C=CC(=O)OCCC(F)(F)C(F)(F)C(F)(F)C(F)(F)C(F)(F)C(F)(F)C(F)(F)C(F)(F)F` ?
A) FALSE

Q) For `C[C@]12CC[C@@H]3c4ccc(O)cc4CC[C@H]3[C@@H]1C[C@@H](O)[C@@H]2O` , what call appears in the results of this test?
A) FALSE

Q) Recorded test call requested for CCC(C)c1ccccc1O (stereo unspecified)
A) FALSE

Q) Please let me know the test result on file for `OCC(CO)(CBr)CBr` .
A) FALSE

Q) Dear colleague, could you share the recorded outcome for `O=C1c2ccc(O)c(O)c2C(=O)c2c(O)ccc(O)c21` when you have a moment?
A) FALSE

Q) Please let me know the test result on file for `CN(Cc1cnc2nc(N)nc(N)c2n1)c1ccc(C(=O)N[C@@H](CCC(=O)O)C(=O)O)cc1` .
A) FALSE

Q) Called result for `Oc1cc2ccccc2cc1O`
A) FALSE

Q) Record request — test call for `CN(C)c1ccc(C(=C2C=CC(=[N+](C)C)C=C2)c2ccccc2)cc1`
A) TRUE
